Attribution: ChEMBL document CHEMBL1129282

Exercise: for every item that follows, state its recorded pKi.
- Tested on: GABA A receptor alpha-3/beta-2/gamma-2 (Homo sapiens, UniProt P18507+P34903+P47870)
- Sequence (P34903 whole entry, one chain of several): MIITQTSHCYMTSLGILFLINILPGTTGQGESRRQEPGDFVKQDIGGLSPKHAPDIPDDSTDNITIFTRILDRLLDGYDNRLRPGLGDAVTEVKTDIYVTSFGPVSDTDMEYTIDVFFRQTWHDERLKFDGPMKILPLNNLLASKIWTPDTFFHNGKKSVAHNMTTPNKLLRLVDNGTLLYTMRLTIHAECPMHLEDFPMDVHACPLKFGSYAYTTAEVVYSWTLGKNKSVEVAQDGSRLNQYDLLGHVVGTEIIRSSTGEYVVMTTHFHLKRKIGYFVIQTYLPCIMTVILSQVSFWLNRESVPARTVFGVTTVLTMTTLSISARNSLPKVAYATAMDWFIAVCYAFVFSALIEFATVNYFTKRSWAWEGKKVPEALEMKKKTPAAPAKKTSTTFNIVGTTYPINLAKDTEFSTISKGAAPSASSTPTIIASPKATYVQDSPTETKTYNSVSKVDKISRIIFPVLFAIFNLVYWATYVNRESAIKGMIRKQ
- Assay name: Displacement of [3H]flunitrazepam from GABA-A receptor alpha-3-beta-2-gamma-2 subunits expressed in Sf9 cells
Notebook: values listed as pKi are -log10 of the concentration (mol/L).

Lookup: pKi / GABA A receptor alpha-3/beta-2/gamma-2 (Homo sapiens, UniProt P18507+P34903+P47870) / "O=C(N1CCOCC1)N1Cc2c(-c3noc(C4CC4)n3)ncn2-c2ccc(F)cc21" 9.15

Now this one: "CC(C)n1c(=O)c2c(-c3noc(C4CC4)n3)ncn2c2ccccc21" 8.24

Now this one: "O=C(N1CCOCC1)N1Cc2c(-c3noc(C4CC4)n3)ncn2-c2cccc(F)c21" 9.29

Now this one: "Cc1cccc2c1N(C(=O)N1CCOCC1)Cc1c(-c3noc(C4CC4)n3)ncn1-2" 7.52

----------
Exercise: for every item that follows, state its recorded Ki.
- Tested on: GABA-A receptor; alpha-1/beta-2/gamma-2 (Homo sapiens, UniProt P14867+P18507+P47870)
- Sequence (P14867 whole entry): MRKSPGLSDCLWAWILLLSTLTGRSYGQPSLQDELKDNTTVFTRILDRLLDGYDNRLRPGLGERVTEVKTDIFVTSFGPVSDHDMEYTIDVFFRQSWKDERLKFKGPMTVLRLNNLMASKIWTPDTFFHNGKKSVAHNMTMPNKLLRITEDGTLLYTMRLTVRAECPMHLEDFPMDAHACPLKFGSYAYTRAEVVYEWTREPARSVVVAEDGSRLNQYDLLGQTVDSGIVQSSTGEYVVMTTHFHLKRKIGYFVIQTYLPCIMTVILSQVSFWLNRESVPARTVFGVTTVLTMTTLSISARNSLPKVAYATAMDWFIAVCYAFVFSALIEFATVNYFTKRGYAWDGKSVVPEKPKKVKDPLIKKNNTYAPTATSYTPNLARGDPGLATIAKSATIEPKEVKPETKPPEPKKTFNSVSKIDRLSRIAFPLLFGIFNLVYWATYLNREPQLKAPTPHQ
- Sequence (P47870 whole entry): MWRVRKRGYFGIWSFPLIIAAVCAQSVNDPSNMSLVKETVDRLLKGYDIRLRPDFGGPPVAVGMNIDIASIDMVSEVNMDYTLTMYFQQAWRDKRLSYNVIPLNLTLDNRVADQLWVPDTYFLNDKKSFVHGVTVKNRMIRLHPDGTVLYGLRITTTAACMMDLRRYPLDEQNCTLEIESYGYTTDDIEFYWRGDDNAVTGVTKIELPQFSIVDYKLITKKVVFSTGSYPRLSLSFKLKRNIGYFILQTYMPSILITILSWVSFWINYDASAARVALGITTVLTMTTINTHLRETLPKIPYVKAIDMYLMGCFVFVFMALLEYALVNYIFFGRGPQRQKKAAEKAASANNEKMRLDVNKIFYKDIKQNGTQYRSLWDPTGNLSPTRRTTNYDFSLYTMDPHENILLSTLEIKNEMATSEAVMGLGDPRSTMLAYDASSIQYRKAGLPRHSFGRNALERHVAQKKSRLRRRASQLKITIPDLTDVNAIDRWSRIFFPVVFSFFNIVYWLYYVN
- Sequence (P18507 whole entry): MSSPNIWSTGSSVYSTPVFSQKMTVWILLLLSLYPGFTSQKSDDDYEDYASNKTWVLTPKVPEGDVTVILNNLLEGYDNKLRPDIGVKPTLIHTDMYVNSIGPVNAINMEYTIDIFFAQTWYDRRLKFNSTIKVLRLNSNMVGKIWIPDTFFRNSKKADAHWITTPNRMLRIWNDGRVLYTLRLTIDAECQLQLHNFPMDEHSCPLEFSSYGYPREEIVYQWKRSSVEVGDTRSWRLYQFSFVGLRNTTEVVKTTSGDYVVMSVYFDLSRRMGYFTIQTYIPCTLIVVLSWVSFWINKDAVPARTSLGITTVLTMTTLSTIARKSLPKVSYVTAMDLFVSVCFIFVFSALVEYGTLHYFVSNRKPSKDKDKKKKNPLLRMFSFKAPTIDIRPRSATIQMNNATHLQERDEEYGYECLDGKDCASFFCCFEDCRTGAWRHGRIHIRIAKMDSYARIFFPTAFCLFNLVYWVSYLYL
- Assay name: Displacement of [3H]flunitrazepam from GABA-A receptor alpha-1-beta-2-gamma-2 subunits expressed in Sf9 cells

Fill blank: measured Ki of the compound "CCNC(=O)N1Cc2c(-c3noc(C4CC4)n3)ncn2-c2ccccc21" is ____. 4.5 nM

Now this one: "CN(C)C(=O)N1Cc2c(-c3noc(C4CC4)n3)ncn2-c2ccccc21" 1.7 nM

Now this one: "O=C(N1CCOCC1)N1Cc2c(-c3noc(C4CC4)n3)ncn2-c2ccc(Cl)cc21" 0.22 nM

Now this one: "CC(=O)N1Cc2c(-c3noc(C4CC4)n3)ncn2-c2ccccc21" 2.7 nM

----------
- System: Mus musculus
- Assay name: Ethanol potentiation activity was measured as loss of righting reflex in male CF-1 mice after oral administration
- Assay type: functional
Exercise: for every item that follows, state its recorded ED50.
Number in mg/kg, nothing else.

Fill blank: measured ED50 of the molecule "CNC(=O)N1Cc2c(-c3noc(C4CC4)n3)ncn2-c2ccccc21" is ____. 11

Now this one: "CN(C)C(=O)N1c2cc(Cl)ccc2-n2cnc(-c3noc(C4CC4)n3)c2C1(C)C" 17

----------
Exercise: for every item that follows, state its recorded pKi.
- Tested on: GABA-A receptor; anion channel
- Assay name: Inhibition of [3H]flunitrazepam binding to GABA-A receptor of rat cortical membranes
Notebook: values listed as pKi are -log10 of the concentration (mol/L).

Fill blank: measured pKi of the compound "O=C(N1CCOCC1)N1Cc2c(-c3noc(C4CC4)n3)ncn2-c2ccc(F)cc21" is ____. 9.17

Now this one: "CC1(C)c2c(-c3noc(C4CC4)n3)ncn2-c2ccccc2N1C(N)=O" 7.07

Now this one: "CN(C)C(=O)N1Cc2c(-c3noc(C4CC4)n3)ncn2-c2ccccc21" 9.00

Now this one: "CC1(C)c2c(-c3noc(C4CC4)n3)ncn2-c2ccccc2N1C(=O)N1CCCC1" 8.54

Now this one: "CCN(CC)C(=O)N1Cc2c(-c3noc(C4CC4)n3)ncn2-c2ccccc21" 9.07

----------
Exercise: for every item that follows, state its recorded Ki.
- Tested on: GABA A receptor alpha-6/beta-2/gamma-2 (Homo sapiens, UniProt P18507+P47870+Q16445)
- Sequence (Q16445 whole entry, one chain of several): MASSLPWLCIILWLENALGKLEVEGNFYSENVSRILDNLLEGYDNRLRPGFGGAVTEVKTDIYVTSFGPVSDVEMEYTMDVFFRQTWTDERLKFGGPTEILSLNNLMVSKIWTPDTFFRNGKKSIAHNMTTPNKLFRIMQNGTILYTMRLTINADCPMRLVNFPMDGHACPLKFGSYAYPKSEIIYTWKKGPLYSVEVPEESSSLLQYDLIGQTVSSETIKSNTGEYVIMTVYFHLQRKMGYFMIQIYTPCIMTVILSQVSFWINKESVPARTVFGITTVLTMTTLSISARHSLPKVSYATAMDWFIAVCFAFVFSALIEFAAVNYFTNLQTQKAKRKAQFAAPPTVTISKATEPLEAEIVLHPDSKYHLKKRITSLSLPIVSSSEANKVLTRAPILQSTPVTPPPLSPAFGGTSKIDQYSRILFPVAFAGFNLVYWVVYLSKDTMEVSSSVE
- Assay name: Displacement of [3H]-Ro-15-4513 from GABA-A receptor alpha-6-beta-2-gamma-2 subunits expressed in Sf9 cells
Number in µM, nothing else.

Fill blank: measured Ki of the molecule "O=C(N1CCOCC1)N1Cc2c(-c3noc(C4CC4)n3)ncn2-c2cccc(F)c21" is ____. 0.013

Now this one: CC(C)n1c(=O)c2c(-c3noc(C4CC4)n3)ncn2c2ccccc21 [PANADIPLON] 0.603

Now this one: "O=C(c1ccccc1)N1Cc2c(-c3noc(C4CC4)n3)ncn2-c2ccccc21" 1.14
